# test: Oral bioavailability in Wistar BRL rat at 5 mg/kg
# Type: ADME, organism-based
# conditionDetails: in vivo

| compoundString | unitString | bioavailability |
| --- | --- | --- |
| CC(C)CN1C(=O)CN(Cc2ccc(-c3cccc(CN4CCCCC4)n3)cc2)C1=O | % | 4 |
| O=C1CN(Cc2ccc(-c3ccc(F)c(CN4CCS(=O)(=O)CC4)n3)cc2)C(=O)N1C1CC1 | % | 100 |

---

# test: in vivo
# conditionDetails: Wistar BRL, rat, brain, po, 20 mg/kg

| compoundString | Kp at 4 h |
| --- | --- |
| O=C1CN(Cc2ccc(-c3ccc(F)c(CN4CCS(=O)(=O)CC4)n3)cc2)C(=O)N1C1CC1 | 0.05 |

---

# test: in vivo
# conditionDetails: Wistar BRL, rat, cerebrospinal fluid, po, 20 mg/kg

| compoundString | Kp at 4 h |
| --- | --- |
| O=C1CN(Cc2ccc(-c3ccc(F)c(CN4CCS(=O)(=O)CC4)n3)cc2)C(=O)N1C1CC1 | 0.14 |

---

# test: Dissociation constant, pKa of the compound
# Type: physicochemical

| compound | pKa |
| --- | --- |
| O=C1CN(Cc2ccc(-c3cccc(CN4CCCCC4)n3)cc2)C(=O)N1CC1CC1 | 8.9 |
| CC(C)CN1C(=O)CN(Cc2ccc(-c3ccc(F)c(CN4CCCCC4)n3)cc2)C1=O | 8.6 |
| O=C1CN(Cc2ccc(-c3ccc(F)c(CN4CCS(=O)(=O)CC4)n3)cc2)C(=O)N1C1CC1 | 2.8 |
| O=C1CN(Cc2ccc(-c3cccc(CN4CCCCC4)n3)cc2)C(=O)N1C1CC1 | 9 |
| O=C1CN(Cc2ccc(-c3ccc(F)c(CN4CCCCC4)n3)cc2)C(=O)N1C1CC1 | 8.6 |
| CC(C)CN1C(=O)CN(Cc2ccc(-c3ccc(F)c(CN4CCCC(F)(F)C4)n3)cc2)C1=O | 5 |
| CCN1C(=O)CN(Cc2ccc(-c3cccc(CN4CCCCC4)n3)cc2)C1=O | 8.8 |
| CC(C)CN1C(=O)CN(Cc2ccc(-c3ccc(F)c(CN4CCS(=O)(=O)CC4)n3)cc2)C1=O | 3 |
| CC(C)CN1C(=O)CN(Cc2ccc(-c3cccc(CN4CCCC(C)C4)n3)cc2)C1=O (centres undefined) | 8.7 |

---

# test: Lipophilicity, log D of the compound
# Format: physicochemical
# conditionDetails: octanol/water

| compound | logD |
| --- | --- |
| CCCN1C(=O)CN(Cc2ccc(-c3cccc(CN4CCCCC4)n3)cc2)C1=O | 2.2 |
| O=C1CN(Cc2ccc(-c3cccc(CN4CCCCC4)n3)cc2)C(=O)N1CC1CC1 | 2.5 |
| CC(C)CN1C(=O)CN(Cc2ccc(-c3cccc(CN4CCCC(F)C4)n3)cc2)C1=O (stereo not given) | 3.7 |
| CC(C)CN1C(=O)CN(Cc2ccc(-c3cccc(CN4CCCCC4)n3)cc2)C1=O | 2.8 |
| O=C1CN(Cc2ccc(-c3cccc(CN4CCCCC4)n3)cc2)C(=O)N1CC(F)(F)F | 1.9 |
